target.or.test.system: Histone-lysine N-methyltransferase EHMT1 (Homo sapiens)
Sequence (Q9H9B1 whole entry): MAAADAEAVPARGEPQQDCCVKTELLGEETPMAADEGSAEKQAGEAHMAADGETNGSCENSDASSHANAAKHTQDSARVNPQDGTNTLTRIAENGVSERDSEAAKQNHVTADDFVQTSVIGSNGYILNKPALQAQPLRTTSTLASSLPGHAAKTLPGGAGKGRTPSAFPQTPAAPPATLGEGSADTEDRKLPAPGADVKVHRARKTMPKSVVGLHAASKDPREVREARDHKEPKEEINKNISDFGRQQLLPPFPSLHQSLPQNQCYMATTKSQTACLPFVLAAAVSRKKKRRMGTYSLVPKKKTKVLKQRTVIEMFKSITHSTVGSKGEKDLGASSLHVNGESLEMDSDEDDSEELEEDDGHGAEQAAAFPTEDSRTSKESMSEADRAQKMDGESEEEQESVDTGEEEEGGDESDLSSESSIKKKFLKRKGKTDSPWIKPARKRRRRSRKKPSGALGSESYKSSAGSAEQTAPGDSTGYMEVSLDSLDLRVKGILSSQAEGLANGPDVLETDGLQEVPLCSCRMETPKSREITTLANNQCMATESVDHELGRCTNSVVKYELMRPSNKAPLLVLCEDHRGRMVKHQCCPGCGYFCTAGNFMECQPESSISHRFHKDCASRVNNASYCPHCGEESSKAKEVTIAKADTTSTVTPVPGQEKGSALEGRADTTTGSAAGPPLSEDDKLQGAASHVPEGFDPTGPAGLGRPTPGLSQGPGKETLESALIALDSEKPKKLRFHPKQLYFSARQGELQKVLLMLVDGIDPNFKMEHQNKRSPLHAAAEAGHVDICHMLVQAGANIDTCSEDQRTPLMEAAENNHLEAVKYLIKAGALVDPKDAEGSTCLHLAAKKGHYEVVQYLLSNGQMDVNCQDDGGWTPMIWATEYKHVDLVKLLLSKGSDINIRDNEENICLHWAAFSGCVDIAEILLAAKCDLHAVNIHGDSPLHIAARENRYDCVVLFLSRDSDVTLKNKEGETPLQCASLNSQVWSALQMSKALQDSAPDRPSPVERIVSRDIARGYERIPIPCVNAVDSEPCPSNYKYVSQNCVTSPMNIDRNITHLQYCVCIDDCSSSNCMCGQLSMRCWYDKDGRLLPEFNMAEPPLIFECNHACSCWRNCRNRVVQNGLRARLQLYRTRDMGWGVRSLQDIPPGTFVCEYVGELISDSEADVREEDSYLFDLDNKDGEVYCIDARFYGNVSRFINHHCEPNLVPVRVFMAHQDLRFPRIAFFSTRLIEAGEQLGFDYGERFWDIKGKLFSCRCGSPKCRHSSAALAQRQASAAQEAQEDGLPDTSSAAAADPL
measured.metric: IC50

Any idea what IC50 was measured for C=CC(=O)NCc1cc(C(=O)NCc2c(SC)cc(C)[nH]c2=O)c(C)c(N(CC)C2CCOCC2)c1 ? > 10 µM

====

method: Apparent permeability in human Caco-2 cells at 20 uM measured for 35 to 95 mins by LC-MS/MS analysis
Type: ADME, cell-based
reported.conditions: time 35-95 min
I'd be grateful if you could share measured Papp at 20 µM for these entries.
Numbers only, in ×10⁻⁶ cm/s.

Example cases with answers are listed next.
| smiles.structure | Papp at 20 µM [×10⁻⁶ cm/s] |
| --- | --- |
| C=CC(=O)Nc1cc(C(=O)NCc2c(C)cc(C)[nH]c2=O)c(C)c(N(CC)C2CCOCC2)c1 | 0.045 |
| C=CC(=O)NCc1cc(C(=O)NCc2c(SC)cc(C)[nH]c2=O)c(C)c(N(CC)C2CCOCC2)c1 | 0.052 |
| CCN(c1cc(-c2ccc(CN3CCOCC3)cc2)cc(C(=O)NCc2c(C)cc(C)[nH]c2=O)c1C)C1CCOCC1 | 1.06 |

Any idea what Papp at 20 µM was measured for C=CC(=O)N(C)c1cc(C(=O)NCc2c(C)cc(C)[nH]c2=O)c(C)c(N(CC)C2CCOCC2)c1 ? 0.054
